- Tested on: MOG induced IFN-γ secretion in splenocyte
- assay info: MOG induced IFN-γ secretion in splenocyte isolated from mice of EAE model (ELISA)
- Format: cell-based, C57BL/6 mice
- measurement context: Mus musculus, concentration 100 μM, 20 μg/ml MOG peptide, 48 hours
readout kind: inhibition at 100 µM

Known inhibition at 100 µM results, listed for orientation:
| molecule | readout kind | test result |
| --- | --- | --- |
| CC1(C)OC2CC1CC1OC21C (stereo not shown) | inhibition at 100 µM | 31% |
| COc1ccc(C(=O)O[C@H]2C[C@H](C(C)(C)O)CC=C2C)cc1 | inhibition at 100 µM | 86% |
| CC1CCC(C(C)(C)O)CC1=O (stereo not shown) | inhibition at 100 µM | 33% |

Shifting focus to the molecule that follows.
Tested system MOG induced IFN-γ secretion in splenocyte; inhibition at 100 µM recorded for "CO[C@H]1C[C@H](C(C)(C)O)CC=C1C" was 17%

###

- System: MOG induced IFN-γ secretion in splenocyte
- assay info: MOG induced IFN-γ secretion in splenocyte isolated from mice of EAE model (ELISA)
- Type: cell-based, C57BL/6 mice
- measurement context: Mus musculus, concentration 200 μM, 20 μg/ml MOG peptide, 48 hours
Label scheme for inhibition at 200 µM: lower than 60% is n, 60% and above is y.

Please review the entries below; each comes with its answer.
| compound | discrete label |
| --- | --- |
| CC1=CC[C@@H](C(C)(C)O)C[C@@H]1OC(=O)CCc1ccccc1 | y |
| CC1=CC[C@@H](C(C)(C)O)C[C@@H]1OC(=O)c1ccc([N+](=O)[O-])cc1 | y |
| CC1=CC[C@H](C(C)(C)O)C[C@H]1O [SK1, (+) trans-Sobrerol] | n |
| CC1=CCC(C(C)(C)O)CC1=O (stereo not drawn) | n |

# input for lookup
Is inhibition at 200 µM at least 60%? Consider CC1=CC[C@@H](C(C)(C)O)C[C@@H]1O [SK2, (−) trans-sobrerol]
n

###

- assay info: Cell viability of BV-2 cells (MTT)
- Assay type: cell-based
- measurement context: mouse, LPS 100 ng/mL
- Description: BV-2 cells (8×10^3 cells/mL) were seeded in a 96-well plate cultured under 37° C., 5% CO2 overnight. […] CC50 value for cell viability of a testing compound and IC50 value for IL-6 expression of a testing compound were calculated based on cell viabilities at different concentrations of the testing compound and IL-6 expression amounts of the cells at different concentrations of the testing compound, respectively.
Give CC50 at 24 h for every item shown.

Known CC50 at 24 h results, listed for orientation:
| compound | test result |
| --- | --- |
| COc1ccc(C(=O)O[C@H]2C[C@H](C(C)(C)O)CC=C2C)cc1 | > 100 µM |
| CC1CCC(C(C)(C)O)CC1=O (stereo not drawn) | > 100 µM |

Shifting focus to the compound that follows.
GET /value?item= "C[C@H]1CC[C@H](C(C)(C)O)C[C@H]1O" &field=CC50 at 24 h returns > 100 µM

###

Give inhibition at 300 µM for every item shown.
- System: MOG induced IFN-γ secretion in splenocyte
- assay info: MOG induced IFN-γ secretion in splenocyte isolated from mice of EAE model (ELISA)
- Assay type: cell-based, C57BL/6 mice
- measurement context: Mus musculus, concentration 300 μM, 20 μg/ml MOG peptide, 48 hours
Answers are plain numbers, in %.

| compound | inhibition at 300 µM, % |
| --- | --- |
| C[C@@H]1CC[C@H](C(C)(C)O)C[C@H]1O | 42 |
| CC1=CCC2CC1OC2(C)C (stereo not shown) | 23 |
| CC1=CC[C@@H](C(C)(C)O)C[C@@H]1OCc1ccccc1 | 20 |

Shifting focus to the compound that follows.
GET /value?item= CC1=CCC(C(C)(C)O)CC1O (stereo not drawn) [SK0, (+)(−) trans-Sobrerol, reference compound] &field=inhibition at 300 µM returns 10
